melting point listing for selected molecules.

Example entries begin here.
CCN(CC)C(=O)c1cc(-c2ccc(Cl)cc2)nc2ccc(Cl)cc12 = 130 °C
CC(SC(=O)c1ccccc1)C(=O)N1c2ccccc2CCC1C(=O)O (centres undefined) = 157 to 159 °C
FC(F)(F)c1cc(-c2cccs2)[nH]n1 = 121 °C
OCCc1nccn1CCCc1ccc(O)cc1 = 116 to 117 °C

## Input Look up and state reported melting point for "O=[N+]([O-])c1cccc2nc[nH]c12"
## Output 242 to 245 °C

## Input Look up and state reported melting point for "Cc1cc2c(-c3ccccc3)c(CCO)n(C)c(=O)c2cc1C"
## Output 204 to 207 °C

## Input Look up and state reported melting point for COC1=CCC(N)(O)C=C1 (centres undefined)
## Output 138 to 140 °C

## Input Look up and state reported melting point for CN(C)C(=O)CCCOC(=O)C(C)(OCc1ccc2ccccc2c1)C(F)(F)F (centres undefined)
## Output 42 to 43 °C

## Input Look up and state reported melting point for CC(C)COP(C)(=O)CC(O)CN1C(=O)c2ccccc2C1=O (centres undefined)
## Output 110 to 113 °C

## Input Look up and state reported melting point for O=C(OCc1ccccc1)C1CSC2C(N=Cc3ccc([N+](=O)[O-])cc3)C(=O)N12 (centres undefined)
## Output 95 to 96 °C

## Input Look up and state reported melting point for "N#Cc1c(NC(=O)CO)cccc1N1CCCCC1"
## Output 121 to 124 °C

## Input Look up and state reported melting point for "CCOC(=O)CCc1cc(CCC(=O)O)cc(Oc2cccnc2)c1"
## Output 85 to 87 °C

## Input Look up and state reported melting point for "O=C(Nc1ccccc1Cl)Oc1ccc2c(c1)CCCN2"
## Output 201 °C

## Input Look up and state reported melting point for COc1ccc(C(C)(C#N)CNC(=O)C(N)=O)cc1OC1CCCC1 (centres undefined)
## Output 171 to 172 °C

## Input Look up and state reported melting point for NCC(c1ccc(OCc2ccccc2)cc1)C1CCCCC1O (mixture of isomers)
## Output 160 to 161 °C

## Input Look up and state reported melting point for "NCCN1CCN(c2ncc3ncnc(Nc4ccc(F)c(Cl)c4)c3n2)CC1"
## Output 175 to 180 °C

----------
melting point listing for selected molecules.

Example entries begin here.
CCc1c(-c2ccc(N3CCN(C)CC3)nn2)ssc1=S = 182 °C
CCOC(=O)OC1=C([C@H]2CC[C@H](c3ccc(Cl)cc3)CC2)C(=O)c2ccccc2C1=O = 145 to 149 °C
Oc1ccc(C=C(Cl)Cl)cc1 = 90 to 91 °C
Cn1ncc(/C=C/C(=O)Nc2ccc(Cc3nn(C)c(=O)o3)cc2)c1-c1ccc(F)cc1 = 200 to 201 °C
COc1ccc(N(C(C)=O)C2=NN(c3ccc([N+](=O)[O-])cc3)C(=O)C2)cc1 = 165 to 167 °C

## Input Look up and state reported melting point for "COc1ccc(Cn2c(C)c(C=O)c3cnnc(OCc4ccccc4)c32)cc1"
## Output 139 to 145 °C

## Input Look up and state reported melting point for "NS(=O)(=O)c1ccc(-c2cnn(Cc3ccccc3)c(=O)c2Cc2ccc(F)cc2)cc1"
## Output 120 to 123 °C

## Input Look up and state reported melting point for "O=C(Cn1c(-c2cccc(Cl)c2)nc2cccnc21)NCCN1CCCCC1"
## Output 114 to 115 °C

## Input Look up and state reported melting point for "O=C(O)COc1ccc(SCc2ccc(OCc3ccccc3)cc2)c2c1CCC2"
## Output 145 to 147 °C

## Input Look up and state reported melting point for "Nc1cc(=O)nc(Nc2ccc(Cl)cc2)n1-c1ccccc1"
## Output 233 to 237 °C

## Input Look up and state reported melting point for "CCOC(=O)Nc1cc(OC(=O)OC)c(Cl)cc1F"
## Output 144 to 147 °C

## Input Look up and state reported melting point for "COC(=O)c1cc(Cl)c(N)c(Cl)c1"
## Output 72 to 74 °C

## Input Look up and state reported melting point for "O=C(O)C(=O)c1ccc(OCCOc2ccc([N+](=O)[O-])cc2)cc1"
## Output 129 to 130 °C

Origin of values: a melting point compilation (Tetko et al.; mined from patent text by program, amines drawn as free bases though some values may be those of a salt)
